experiment: in vitro; details: human, NCI H1395 cells
Let's look at some compounds and their measured CC50 at 24 h.

Compound | CC50 at 24 h
CCOC(=O)[C@@H]1O[C@H](n2cc(C)c(=O)[nH]c2=O)CC1(C)C(=O)OCC (stereo partly shown) | > 460 µM
Cc1cn([C@@H]2CC(C)(CO)[C@@H](CO)O2)c(=O)[nH]c1=O (mixture of isomers) | > 500 µM
COC(=O)C1(C)C[C@@H](n2ccc(=O)[nH]c2=O)O[C@@H]1CO (mixture of isomers) | 493 µM
C[C@@]12CC(n3ccc(N)nc3=O)O[C@@H]1COC2=O (mixture of isomers) | > 500 µM
Cc1cc(=O)[nH]c(=O)n1[C@H]1CC2(C)C(=O)OC[C@H]2O1 (single isomer, unassigned) | > 500 µM
COC(=O)C1(C)C[C@H](n2cc(F)c(=O)[nH]c2=O)O[C@@H]1CO (mixture of isomers) | > 500 µM
CC1(CO)CC(n2ccc(N)nc2=O)O[C@@H]1CO (mixture of isomers) | > 500 µM
C[C@@]12CC(n3cc(F)c(N)nc3=O)O[C@@H]1COC2=O (mixture of isomers) | > 500 µM
COC(=O)C1(C)C[C@@H](n2cc(C)c(=O)[nH]c2=O)O[C@@H]1CO (mixture of isomers) | > 500 µM
CCOC(=O)[C@@H]1O[C@H](n2cc(F)c(=O)[nH]c2=O)CC1(C)C(=O)OCC (stereo in doubt) | > 460 µM
CC1(CO)C[C@H](n2ccc(N)nc2=O)O[C@@H]1CO (mixture of isomers) | > 500 µM
Cc1cc(=O)[nH]c(=O)n1[C@H]1CC(C)(CO)[C@@H](CO)O1 (mixture of isomers) | > 500 µM
CC1(CO)C[C@H](n2ccc(=O)[nH]c2=O)O[C@@H]1CO (mixture of isomers) | > 500 µM
Nc1ccn([C@@H]2O[C@H](CO)[C@@H](O)[C@@H]2O)c(=O)n1 [Cytarabine, reference compound] | 428 µM
CC1(C(N)=O)CC(n2cc(F)c(N)nc2=O)O[C@@H]1CO (mixture of isomers) | > 500 µM
COC(=O)C1(C)CC(n2cc(C)c(=O)[nH]c2=O)OC1CO (racemic) | > 500 µM

---

assay: in vitro; settings: human, MOLT-4 cells
Let's look at some compounds and their measured CC50 at 24 h.
Attribute measured: CC50 at 24 h

Compound | Endpoint value
CCOC(=O)[C@@H]1O[C@H](n2cc(F)c(=O)[nH]c2=O)CC1(C)C(=O)OCC (stereo in doubt) | > 460 µM
CCOC(=O)[C@@H]1O[C@H](n2ccc(=O)[nH]c2=O)CC1(C)C(=O)OCC (some centres unmarked) | > 460 µM
Cc1cc(=O)[nH]c(=O)n1[C@H]1CC(C)(CO)[C@@H](CO)O1 (mixture of isomers) | > 500 µM
C[C@@]12CC(n3cc(F)c(N)nc3=O)O[C@@H]1COC2=O (mixture of isomers) | > 500 µM
CC1(C(N)=O)CC(n2cc(F)c(N)nc2=O)O[C@@H]1CO (mixture of isomers) | > 500 µM
CCOC(=O)[C@@H]1O[C@H](n2cc(C)c(=O)[nH]c2=O)CC1(C)C(=O)OCC (some centres unmarked) | > 460 µM
Cc1cn([C@H]2CC(C)(CO)[C@@H](CO)O2)c(=O)[nH]c1=O (mixture of isomers) | > 500 µM
Nc1ccn([C@@H]2O[C@H](CO)[C@@H](O)[C@@H]2O)c(=O)n1 [Cytarabine, reference compound] | > 500 µM
Cc1cc(=O)[nH]c(=O)n1[C@H]1CC2(C)C(=O)OC[C@H]2O1 (single isomer, unassigned) | > 500 µM
C[C@@]12CC(n3ccc(N)nc3=O)O[C@@H]1COC2=O (mixture of isomers) | > 500 µM
COC(=O)C1(C)C[C@H](n2cc(F)c(=O)[nH]c2=O)O[C@@H]1CO (mixture of isomers) | > 500 µM
